Data credit: patent US20250213705A1

- system: human FOLH1 (Homo sapiens (Human), UniProt Q04609)
- Sequence (Q04609 whole entry): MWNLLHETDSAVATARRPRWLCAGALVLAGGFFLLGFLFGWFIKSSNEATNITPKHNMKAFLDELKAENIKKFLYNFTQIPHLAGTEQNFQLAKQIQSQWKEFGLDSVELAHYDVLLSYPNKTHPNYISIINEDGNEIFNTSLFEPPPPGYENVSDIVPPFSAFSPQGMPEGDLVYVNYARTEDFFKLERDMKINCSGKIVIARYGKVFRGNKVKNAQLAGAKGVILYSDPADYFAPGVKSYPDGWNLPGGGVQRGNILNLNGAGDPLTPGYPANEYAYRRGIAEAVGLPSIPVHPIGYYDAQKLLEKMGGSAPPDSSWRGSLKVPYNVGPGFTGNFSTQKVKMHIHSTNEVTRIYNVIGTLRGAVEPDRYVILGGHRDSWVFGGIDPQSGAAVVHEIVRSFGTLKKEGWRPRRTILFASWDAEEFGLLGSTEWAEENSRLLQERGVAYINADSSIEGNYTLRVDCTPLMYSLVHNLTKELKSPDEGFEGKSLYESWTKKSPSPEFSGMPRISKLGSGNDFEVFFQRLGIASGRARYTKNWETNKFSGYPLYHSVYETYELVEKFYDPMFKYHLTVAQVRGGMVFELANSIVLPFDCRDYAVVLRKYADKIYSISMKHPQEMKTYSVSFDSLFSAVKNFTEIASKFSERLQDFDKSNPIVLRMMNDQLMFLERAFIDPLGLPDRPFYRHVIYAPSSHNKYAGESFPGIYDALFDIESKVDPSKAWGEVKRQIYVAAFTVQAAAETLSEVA
- test method notes: SPR analysis of binding kinetics to biotinylated FOLH1 (Biacore 8K)
- run parameters: ligand PSMA, association rate
observation type: Kon

Solved cases below.
CC(=O)NCCOCCOCCOCCC(=O)N[C@@H](Cc1ccc(C(=O)O)cc1)C(=O)NCCCC(=O)N[C@@H](Cc1ccc2ccccc2c1)C(=O)NCCCC[C@H](NC(=O)N[C@@H](CCC(=O)O)C(=O)O)C(=O)O [Compound 97]	90100 1.ms
CC(=O)NCCOCCOCCOCCC(=O)N[C@@H](Cc1ccc(C(=O)O)cc1)C(=O)NCCC(=O)N[C@@H](Cc1ccc2ccccc2c1)C(=O)NCCCC[C@H](NC(=O)N[C@@H](CCC(=O)O)C(=O)O)C(=O)O [Compound 95]	124000 1.ms
CC(=O)NCCOCCOCCOCCC(=O)N[C@@H]1C[C@@H](C(=O)N[C@@H](Cc2ccc3ccccc3c2)C(=O)NCCCC[C@H](NC(=O)N[C@@H](CCC(=O)O)C(=O)O)C(=O)O)N(C(=O)CCCOc2cc(C#N)cc(C#N)c2)C1 (stereo in doubt) [Compound 82]	72200 1.ms
CC(=O)NCCOCCOCCOCCC(=O)NC[C@H]1CC[C@H](C(=O)N[C@@H](Cc2ccc(N)cc2)C(=O)NCCCC[C@H](NC(=O)N[C@@H](CCC(=O)O)C(=O)O)C(=O)O)CC1 [Compound 14]	131000 1.ms
CC(=O)NCCOCCOCCOCCC(=O)N(CCCCOc1cc(C(F)(F)F)cc(C(F)(F)F)c1)CC(=O)N[C@@H](Cc1ccc2ccccc2c1)C(=O)NCCCC[C@H](NC(=O)N[C@@H](CCC(=O)O)C(=O)O)C(=O)O [Compound 88]	215000 1.ms
CC(=O)NCCOCCOCCOCCC(=O)N[C@@H](Cc1cccc(C(=O)O)c1)C(=O)NCCC(=O)N[C@@H](Cc1ccc2ccccc2c1)C(=O)NCCCC[C@H](NC(=O)N[C@@H](CCC(=O)O)C(=O)O)C(=O)O [Compound 93]	149000 1.ms

Turning to the following molecule.
Exercise: Given the molecule CC(=O)NCCOCCOCCOCCC(=O)N1C[C@H](NC(=O)COc2cc(C#N)cc(C#N)c2)C[C@H]1C(=O)NCC(=O)N[C@@H](Cc1ccc2ccccc2c1)C(=O)NCCCC[C@H](NC(=O)N[C@@H](CCC(=O)O)C(=O)O)C(=O)O [Compound 89] , what is its reported Kon?
Key: 121000 1.ms
